Tgt: T1, glucagon receptor (target of the KD / T½ of Tables 1A, 1B and 2B) (Homo sapiens (Human), UniProt P47871 26-136)
T1 construct: not shown: Human Fc carrier (and any linker) of the ECD-Fc fusion
Assay Notes: not stated; 37° C.

Binder	T½ (h)
H2-E7-H3-2 (antibody, V domains shown) VH: QVQLVQSGAEVKKPGASVKVSCKASGYTFTDFSVHWVRQAPGQGLEWMGWYNLETDETSYADDFKGRVTMTRDTSTSTVYMELSSLRSEDTAVYYCVKSLFWSYGPPDYWGQGTTVTVSS VL: DIQMTQSPSSLSASVGDRVTITCRASQNIRTAVVWYQQKPGKAPKLLIYLATNRHSGVPSRFSGSGSGTDFTFTISSLQPEDIATYYCLQHWTYPFSFGGGTKLEIK	7.94
H2-A11-H3-3 (antibody, V domains shown) VH: QVQLVQSGAEVKKPGASVKVSCKASGYTFTDFSVHWVRQAPGQGLEWMGWINTEYDFTSYADDFKGRVTMTRDTSTSTVYMELSSLRSEDTAVYYCVKSLYWSYGPPDYWGQGTTVTVSS VL: DIQMTQSPSSLSASVGDRVTITCRASQNIRTAVVWYQQKPGKAPKLLIYLATNRHSGVPSRFSGSGSGTDFTFTISSLQPEDIATYYCLQHWTYPFSFGGGTKLEIK	17.2
H2-A11-H3-2 (antibody, V domains shown) VH: QVQLVQSGAEVKKPGASVKVSCKASGYTFTDFSVHWVRQAPGQGLEWMGWINTEYDFTSYADDFKGRVTMTRDTSTSTVYMELSSLRSEDTAVYYCVKSLFWSYGPPDYWGQGTTVTVSS VL: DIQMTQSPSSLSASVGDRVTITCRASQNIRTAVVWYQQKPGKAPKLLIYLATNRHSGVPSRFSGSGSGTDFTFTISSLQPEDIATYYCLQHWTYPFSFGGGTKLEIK	8.53
